For each entry below, report its MIC value.
system: Acinetobacter baumannii; experiment: Antibacterial activity against Carbapenem-resistant Acinetobacter baumannii clinical isolate incubated for 16 to 24 hrs by CLSI based broth microdilution method; assay type: functional; details: time 16-24 hrs
Numbers only, in µg/mL.

Example cases with answers are listed next.
>>> reported_measurement("CN[C@H](CC(C)C)C(=O)N[C@H]1C(=O)N[C@@H](CC(N)=O)C(=O)N[C@H]2C(=O)N[C@H]3C(=O)N[C@H](C(=O)N[C@H](C(=O)NCCc4ccc(-c5ccc(CNC(=N)N)cc5)cc4)c4cc(O)cc(O)c4-c4cc3ccc4O)[C@H](O)c3ccc(c(Cl)c3)Oc3cc2cc(c3O[C@@H]2O[C@H](CO)[C@@H](O)[C@H](O)[C@H]2O[C@H]2C[C@](C)(N)[C@H](O)[C@H](C)O2)Oc2ccc(cc2Cl)[C@H]1O")
64
>>> reported_measurement("CC(C)C[C@@H](N)C(=O)N[C@H]1C(=O)N[C@@H](CC(N)=O)C(=O)N[C@H]2C(=O)N[C@H]3C(=O)N[C@H](C(=O)N[C@H](C(=O)NCCCCCCCCNC(=N)N)c4cc(O)cc(O)c4-c4cc3ccc4O)[C@H](O)c3ccc(c(Cl)c3)Oc3cc2cc(c3O[C@@H]2O[C@H](CO)[C@@H](O)[C@H](O)[C@H]2O[C@H]2C[C@](C)(N)[C@H](O)[C@H](C)O2)Oc2ccc(cc2Cl)[C@H]1O")
64
>>> reported_measurement("CC(C)C[C@@H](N)C(=O)N[C@H]1C(=O)N[C@@H](CC(N)=O)C(=O)N[C@H]2C(=O)N[C@H]3C(=O)N[C@H](C(=O)N[C@H](C(=O)NCCN)c4cc(O)cc(O)c4-c4cc3ccc4O)[C@H](O)c3ccc(c(Cl)c3)Oc3cc2cc(c3O[C@@H]2O[C@H](CO)[C@@H](O)[C@H](O)[C@H]2O[C@H]2C[C@](C)(N)[C@H](O)[C@H](C)O2)Oc2ccc(cc2Cl)[C@H]1O")
128

Now for the molecule whose MIC we want.
Challenge: Given `CC(C)C[C@@H](N)C(=O)N[C@H]1C(=O)N[C@@H](CC(N)=O)C(=O)N[C@H]2C(=O)N[C@H]3C(=O)N[C@H](C(=O)N[C@H](C(=O)NCc4ccc(-c5ccccc5CN)cc4)c4cc(O)cc(O)c4-c4cc3ccc4O)[C@H](O)c3ccc(c(Cl)c3)Oc3cc2cc(c3O[C@@H]2O[C@H](CO)[C@@H](O)[C@H](O)[C@H]2O[C@H]2C[C@](C)(N)[C@H](O)[C@H](C)O2)Oc2ccc(cc2Cl)[C@H]1O` , state its recorded MIC.
Response given: 16
